Reported % Rmax hCD32b values follow for various molecules
Target: T1, CD32b (FcgRIIb) (Homo sapiens, UniProt P31994)
T1 sequence (P31994 43-310): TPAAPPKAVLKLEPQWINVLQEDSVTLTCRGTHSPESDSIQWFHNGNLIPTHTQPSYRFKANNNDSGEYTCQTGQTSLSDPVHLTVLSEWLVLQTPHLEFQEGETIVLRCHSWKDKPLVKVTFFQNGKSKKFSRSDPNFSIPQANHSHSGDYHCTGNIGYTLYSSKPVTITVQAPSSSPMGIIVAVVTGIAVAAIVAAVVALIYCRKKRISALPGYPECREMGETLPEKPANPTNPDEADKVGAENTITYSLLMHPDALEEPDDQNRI
Experiment: SPR, antibody binding to anti-his Fab captured FcgR-his (% Rmax)
Conditions: 1 μM antibody
Write the answer as a number in %, unit excluded.

Observe how each entry below is paired with its result.
molecule	% Rmax hCD32b [%]
mAb7-IgG2.5G1-AY-V27 (protein, left off: another chain or arm of the molecule) constant: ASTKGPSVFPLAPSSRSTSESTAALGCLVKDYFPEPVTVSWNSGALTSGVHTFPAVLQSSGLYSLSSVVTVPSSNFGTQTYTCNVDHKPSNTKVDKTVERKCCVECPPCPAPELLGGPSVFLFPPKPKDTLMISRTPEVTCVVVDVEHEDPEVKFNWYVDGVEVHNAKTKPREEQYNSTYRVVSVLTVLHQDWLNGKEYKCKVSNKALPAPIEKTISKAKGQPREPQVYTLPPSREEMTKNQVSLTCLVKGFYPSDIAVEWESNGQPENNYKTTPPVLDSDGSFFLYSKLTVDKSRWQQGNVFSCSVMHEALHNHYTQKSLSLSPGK	84
mAb6-IgG2.3 (protein, left off: another chain or arm of the molecule) constant: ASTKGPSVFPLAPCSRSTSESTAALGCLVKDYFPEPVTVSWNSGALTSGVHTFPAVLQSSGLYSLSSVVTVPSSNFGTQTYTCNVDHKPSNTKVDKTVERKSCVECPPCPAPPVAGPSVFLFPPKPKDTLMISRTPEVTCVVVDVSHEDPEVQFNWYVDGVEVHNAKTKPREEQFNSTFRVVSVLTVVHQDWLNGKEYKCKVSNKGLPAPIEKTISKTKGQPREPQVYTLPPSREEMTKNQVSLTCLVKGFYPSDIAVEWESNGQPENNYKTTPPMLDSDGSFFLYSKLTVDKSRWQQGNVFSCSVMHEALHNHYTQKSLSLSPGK	3

In the following, a different molecule is considered.
Answer with the recorded % Rmax hCD32b of mAb4-IgG2.5 (protein, left off: another chain or arm of the molecule) constant: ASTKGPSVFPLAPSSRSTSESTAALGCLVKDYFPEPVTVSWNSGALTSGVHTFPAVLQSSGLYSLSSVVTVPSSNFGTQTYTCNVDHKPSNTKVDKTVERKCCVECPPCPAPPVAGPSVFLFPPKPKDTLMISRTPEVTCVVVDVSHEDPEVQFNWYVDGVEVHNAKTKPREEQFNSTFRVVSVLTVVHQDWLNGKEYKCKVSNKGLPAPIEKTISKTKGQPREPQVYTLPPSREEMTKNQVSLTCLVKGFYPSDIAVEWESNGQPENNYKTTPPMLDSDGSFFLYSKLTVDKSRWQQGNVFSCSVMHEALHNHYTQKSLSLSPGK only. 1
